# assayTarget: Metabotropic glutamate receptor 5 (Homo sapiens, UniProt P41594)
# Sequence (P41594 21-1212 limits assumed): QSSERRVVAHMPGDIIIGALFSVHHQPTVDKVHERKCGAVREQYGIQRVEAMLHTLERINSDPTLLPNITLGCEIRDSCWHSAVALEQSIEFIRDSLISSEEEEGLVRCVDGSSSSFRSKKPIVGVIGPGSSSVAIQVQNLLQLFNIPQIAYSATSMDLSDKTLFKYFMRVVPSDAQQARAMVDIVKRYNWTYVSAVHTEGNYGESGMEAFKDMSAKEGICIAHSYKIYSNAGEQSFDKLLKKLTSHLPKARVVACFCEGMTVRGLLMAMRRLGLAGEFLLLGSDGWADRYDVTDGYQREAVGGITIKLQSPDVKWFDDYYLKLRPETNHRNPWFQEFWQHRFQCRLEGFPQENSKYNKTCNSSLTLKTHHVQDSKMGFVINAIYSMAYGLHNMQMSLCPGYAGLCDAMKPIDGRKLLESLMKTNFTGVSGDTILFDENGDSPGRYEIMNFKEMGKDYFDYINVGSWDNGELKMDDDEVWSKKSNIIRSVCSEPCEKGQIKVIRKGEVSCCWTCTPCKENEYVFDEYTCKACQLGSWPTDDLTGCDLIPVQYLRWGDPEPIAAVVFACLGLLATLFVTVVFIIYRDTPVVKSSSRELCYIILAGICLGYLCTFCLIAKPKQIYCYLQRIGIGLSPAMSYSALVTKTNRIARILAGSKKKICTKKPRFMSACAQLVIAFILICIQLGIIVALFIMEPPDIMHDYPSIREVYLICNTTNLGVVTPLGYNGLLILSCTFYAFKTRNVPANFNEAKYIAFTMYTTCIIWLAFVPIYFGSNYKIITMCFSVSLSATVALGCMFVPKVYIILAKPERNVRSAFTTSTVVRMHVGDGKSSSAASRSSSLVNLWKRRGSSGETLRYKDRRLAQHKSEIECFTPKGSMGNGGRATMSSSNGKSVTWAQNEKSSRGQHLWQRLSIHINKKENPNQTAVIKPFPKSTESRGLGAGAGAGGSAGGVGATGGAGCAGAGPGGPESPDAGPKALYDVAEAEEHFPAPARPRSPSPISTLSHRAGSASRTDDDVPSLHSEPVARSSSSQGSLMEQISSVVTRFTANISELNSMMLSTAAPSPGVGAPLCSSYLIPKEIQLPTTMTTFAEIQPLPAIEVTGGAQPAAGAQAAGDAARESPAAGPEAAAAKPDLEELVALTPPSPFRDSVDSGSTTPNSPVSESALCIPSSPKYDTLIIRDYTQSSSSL
# measurementNotes: Negative allosteric modulation of human mGlu5 receptor assessed as inhibition of glutamate induced-calcium mobilization relative to glutamate
# Assay type: functional
assayReadout: Efficacy (%)
Give bare numbers, in %.

Examples with their reported Efficacy follow.
Cc1cc(OCC2CCOC2)cc(C(=O)Nc2ccccn2)n1 (stereo unspecified) : 1.1
Cc1cc(OCC2CCOC2)cc(C(=O)Nc2nc(C)cs2)n1 (stereo unspecified) : 1.1
Cc1cc(OCC2CCCO2)cc(C(=O)Nc2ccccn2)n1 (stereo unspecified) : 0.8
Cc1cc(O[C@H]2CO[C@H](C)C2)cc(C(=O)Nc2nc(C(F)(F)F)cs2)n1 : 2.7

// for each compound below, give its Efficacy
1. Cc1cc(OC2CCC2)cc(C(=O)Nc2ccccn2)n1
2. Cc1cc(OC2COC2)cc(C(=O)Nc2ccc(F)cn2)n1
3. Cc1cc(O[C@H]2CO[C@H](C)C2)cc(C(=O)Nc2nc(C)c(F)s2)n1
4. Cc1cc(O[C@H]2CO[C@@H](C)C2)cc(C(=O)Nc2nc(C)cs2)n1
5. Cc1cc(OC2CCOCC2)cc(C(=O)Nc2nc(C)cs2)n1

1: 1.5; 2: 1.1; 3: 3.8; 4: 1.1; 5: 0.7
